# targetUnderTest: HcbA3C-His (HcbA3, NADH:FMN oxidoreductase)
# testDetails: fluorescence quenching titration of flavin
# reportedConditions: 50 nM FMN, 20 mM KPi pH 7.5, 20°C; oxidized FMN
pKd: −log10 of the molar value.

{"smi": "Cc1cc2nc3c(=O)[nH]c(=O)nc-3n(C[C@H](O)[C@H](O)[C@H](O)COP(=O)(O)O)c2cc1C", "targetUnderTest": "HcbA3C-His (HcbA3, NADH:FMN oxidoreductase)", "pKd": 6.12}
